// data source = ChEMBL document CHEMBL1152446

Listing of recorded pIC50 by entry.
TESTED SYSTEM: UniProt:P45452
ASSAY PROCEDURE: Inhibition of human recombinant MMP13
pIC50 is defined as minus the log10 of a concentration measured in mol/L.

Take a look at these entries with their results.
SMILES STR: Cc1ccc(OC(=O)Nc2ccc3c(c2)sc2cc(S(=O)(=O)N[C@H](C(=O)O)C(C)C)ccc23)cc1
VALUE TYPE: pIC50
MEAS VALUE: 6.63
//
SMILES STR: CC(C)[C@H](NS(=O)(=O)c1ccc2c(c1)sc1cc(NC(=O)NCc3ccccc3)ccc12)C(=O)O
VALUE TYPE: pIC50
MEAS VALUE: 6.70

The reported value for CC(C)[C@H](NS(=O)(=O)c1ccc2c(c1)oc1ccc(N3CCOC3=O)cc12)C(=O)O in terms of pIC50 is 6.97

Item: CC(C)[C@@H](NS(=O)(=O)c1ccc2c(c1)sc1ccc(NS(C)(=O)=O)cc12)C(=O)O | pIC50: 6.56

The recorded pIC50 for entry CC(C)[C@@H](NS(=O)(=O)c1ccc2sc3ccccc3c2c1)C(=O)O equals 4.86

---

TESTED SYSTEM: Macrophage metalloelastase MMP-12 (Homo sapiens) (UniProt P39900)
Sequence (P39900 whole entry, looked up): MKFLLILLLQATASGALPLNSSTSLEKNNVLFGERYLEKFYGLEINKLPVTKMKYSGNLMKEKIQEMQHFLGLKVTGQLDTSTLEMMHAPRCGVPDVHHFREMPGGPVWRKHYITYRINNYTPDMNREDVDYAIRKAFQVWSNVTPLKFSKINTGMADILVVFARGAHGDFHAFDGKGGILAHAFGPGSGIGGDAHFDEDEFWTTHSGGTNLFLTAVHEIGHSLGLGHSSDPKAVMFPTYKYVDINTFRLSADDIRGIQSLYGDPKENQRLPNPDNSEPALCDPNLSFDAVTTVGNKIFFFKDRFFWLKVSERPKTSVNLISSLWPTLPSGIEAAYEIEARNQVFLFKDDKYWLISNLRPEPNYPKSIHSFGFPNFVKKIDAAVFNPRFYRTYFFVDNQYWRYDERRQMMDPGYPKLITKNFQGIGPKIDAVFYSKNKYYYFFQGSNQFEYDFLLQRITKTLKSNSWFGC
VALUE TYPE: pIC50
Scale: negative log10 of molar concentration, which is what pIC50 denotes.

The reported pIC50 value, Macrophage metalloelastase MMP-12 (Homo sapiens) (UniProt P39900), for COC(=O)Nc1ccc2oc3cc(S(=O)(=O)N[C@H](C(=O)O)C(C)C)ccc3c2c1 reads 8.70

---

IC50 reference
TESTED SYSTEM: Collagenase 3 (Homo sapiens)
ASSAY PROCEDURE: Inhibition of human recombinant MMP13
Please reply with the bare figure in nM and do not write the unit itself.

SMILES STR: CCOC(=O)Nc1ccc2c(c1)sc1cc(S(=O)(=O)N[C@H](C(=O)O)C(C)C)ccc12
IC50, nM: 56

Reported IC50 ( CC(C)COC(=O)Nc1ccc2c(c1)sc1cc(S(=O)(=O)N[C@H](C(=O)O)C(C)C)ccc12 ) = 334

molecule COC(=O)Nc1ccc2sc3cc(S(=O)(=O)N[C@H](C(=O)O)C(C)C)ccc3c2c1 , IC50 observed: 65

Record summary for CC(C)[C@H](NS(=O)(=O)c1ccc2c(c1)sc1cc(NC(=O)NCCc3cccs3)ccc12)C(=O)O : reported IC50 = 456

---

TESTED SYSTEM: Collagenase 3 (Homo sapiens)
ASSAY PROCEDURE: Inhibition of human recombinant MMP13
pIC50: −log10 of the molar value.
pIC50 values, listed per item

Briefly, pIC50 measured for CC(C)[C@H](NS(=O)(=O)c1ccc2sc3cc(NS(C)(=O)=O)ccc3c2c1)C(=O)O : < 4.60

Input COC(=O)Nc1ccc2c(c1)sc1ccc(S(=O)(=O)N[C@H](C(=O)O)C(C)C)cc12 . Output pIC50: < 4.60

The reported value for CC(C)[C@H](NS(=O)(=O)c1ccc2c(c1)sc1cc(NC(=O)NC3CCCC3)ccc12)C(=O)O in terms of pIC50 is < 6.00

Entry COC(=O)Nc1ccc2c(c1)sc1ccc(S(=O)(=O)N[C@@H](C(=O)O)C(C)C)cc12 , pIC50 reported as < 4.60
